Test system: CYP1A1 mRNA
ASSAY NAME: Summary of CYP1A1 gene expression in human hepatic and intestinal cells
Format: cell-based
COND: Table 1 summary class; CYP1A1
ASSAY READOUT: Gene Expression

MOLECULE: NC(=O)Cc1c[nH]c2ccccc12 [IAD, indole-3-acetamide]
ASSAY READOUT: Gene Expression
OBS VALUE: strong inducer

MOLECULE: O=C(O)CCc1c[nH]c2ccccc12 [IPA, indole-3-propionate]
ASSAY READOUT: Gene Expression
OBS VALUE: inactive

MOLECULE: O=Cc1c[nH]c2ccccc12 [IA, indole-3-aldehyde]
ASSAY READOUT: Gene Expression
OBS VALUE: inactive

MOLECULE: c1ccc2[nH]ccc2c1 [IND, indole]
ASSAY READOUT: Gene Expression
OBS VALUE: strong inducer

State measured Gene Expression of the molecule NCCc1c[nH]c2ccccc12 [TA, tryptamine] with CYP1A1 mRNA.
strong inducer

State measured Gene Expression of the molecule O=C(O)C(=O)Cc1c[nH]c2ccccc12 [IPY, indole-3-pyruvate] with CYP1A1 mRNA.
strong inducer

State measured Gene Expression of the molecule OCCc1c[nH]c2ccccc12 [IET, indole-3-ethanol] with CYP1A1 mRNA.
inactive

State measured Gene Expression of the molecule Cc1c[nH]c2ccccc12 [3MI, skatole] with CYP1A1 mRNA.
strong inducer

State measured Gene Expression of the molecule O=C(O)Cc1c[nH]c2ccccc12 [IAA, indole-3-acetate] with CYP1A1 mRNA.
inactive

State measured Gene Expression of the molecule O=C(O)C(O)Cc1c[nH]c2ccccc12 (centres unmarked) [ILA, indole-3-lactate] with CYP1A1 mRNA.
inactive

State measured Gene Expression of the molecule O=C(O)/C=C/c1c[nH]c2ccccc12 [IAC, indole-3-acrylate] with CYP1A1 mRNA.
strong inducer
